- PROTOCOL_DETAILS: BET inhibitor-based combinations targeting novel dependencies in MECOM-rearranged (r) AML: UCSD-AML1 cell line (AID 2202235); further: nearly all actives have a fitted effect of over 40% in size
- CONDITION_LABEL: UCSD-AML1 AML cells viability, CellTiter-Glo, 48 h; series mostly up to 46 µM
Records with an inconclusive call do not appear. Active and inactive are the calls of the source. The call rests on the fitted dose curve; in most records, active means well fitted inhibition curve with a large enough effect; inconclusive means small, poorly fitted or top-dose-only effect; inactive means no such curve, though single readings can be large or run the other way. Non-standard residues stand in square brackets, D forms with d. Residues, ends and D or L forms follow the SMILES beside them.
Outcome codes: Yes for active, No for inactive

- CNCCCOc1cc(F)c(-c2c(Cl)nc3ncnn3c2N[C@@H](C)C(F)(F)F)c(F)c1: Yes
- CC(C)C[C@@H]1NC(=O)[C@@H](C(C)C)NC(=O)[C@@H]2CCCN2C(=O)[C@@H](CC(=O)O)NC(=O)[C@@H](Cc2c[nH]c3ccccc23)NC1=O (cyclo(L[dW][dD]P[dV])): No
- COc1ccc(C(=O)N2CCN(c3ccc4c(c3)CCC(=O)N4)CC2)cc1OC: No
- C=CC(=O)N1CCc2ccc(-n3c(=O)ccc4cnc5ccc(-c6cnn(C)c6)cc5c43)cc21: Yes

* * *

- PROTOCOL_DETAILS: BET inhibitor-based combinations targeting novel dependencies in MECOM-rearranged (r) AML: MV-4-11 cell line (AID 2202233); further: nearly all actives have a fitted effect of over 45% in size
- CONDITION_LABEL: MV-4-11 AML viability, CellTiter-Glo luminescence, 48 h; series mostly up to 46 µM
Records with an inconclusive call do not appear. Calls of active or inactive are those of the source. Calls follow the shape of the dose curve; as a rule, active = well fitted inhibition curve with a large enough effect; inconclusive = small, poorly fitted or top-dose-only effect; inactive = no such curve, though single readings can be large or run the other way.
Outcome codes: class 1 = active, class 0 = inactive

- COc1cc([C@@H]2c3cc4c(cc3[C@@H](O[C@@H]3O[C@@H]5CO[C@@H](c6cccs6)O[C@H]5[C@H](O)[C@H]3O)[C@H]3COC(=O)[C@H]23)OCO4)cc(OC)c1O: class 1
- Cn1ncc(NC(=O)c2nc(-c3c(F)cccc3F)sc2N)c1N1CC[C@@H](N)[C@H](F)CC1: class 1
- Cc1ccc(C(=O)Nc2ccc(CN3CCN(C)CC3)c(C(F)(F)F)c2)cc1C#Cc1cnc2[nH]ncc2c1: class 1
- CC(C)n1c(/C=C/[C@H](O)C[C@H](O)CC(=O)O)c(-c2ccc(F)cc2)c2ccccc21: class 1
- O=C(Nc1cccc(Nc2ncc(Br)c(NCCc3cnc[nH]3)n2)c1)N1CCCC1: class 1
- CC(/C=C/C(=O)NO)=C\[C@@H](C)C(=O)c1ccc(N(C)C)cc1: class 1
- NC[C@@](O)(c1ccc(Cl)cc1)c1ccc(-c2cn[nH]c2)cc1: class 1
- Clc1cccc(-c2ccc(-c3nnc(CCCc4ccc5cccnc5n4)o3)cc2)c1: class 0
- CCC(=C/[C@H](C)C/C=C/C(C)=C/[C@@H](C)C(=O)[C@@H](C)[C@H](O)[C@@H](C)C/C(C)=C/C(=O)O)/C=C/[C@@H]1OC(=O)C=C[C@@H]1C: class 1
- CN(C)C(=O)COC(=O)Cc1ccc(OC(=O)c2ccc(N=C(N)N)cc2)cc1: class 0
- Cn1cc(C2=C(c3cn(C)c4cc([N+](=O)[O-])ccc34)C(=O)NC2=O)c2ccccc21: class 1
- COc1ccc(C(=O)N2CCN(C(=O)/C=C/c3ccc(Br)cc3)CC2)cc1: class 1
- O=C(N[C@H]1CCC[C@H](CO)C1)C1CCN(c2nc3cc(Cl)c(-c4ccc(Cl)cc4)cc3o2)CC1: class 1
- Clc1ccc(-c2nc3sccn3c2/C=N/OCc2ccc(Cl)c(Cl)c2)cc1: class 0
- N#CC(c1ccnc(NCCc2cccnc2)n1)c1nc2ccccc2s1 (configuration not stated): class 1
- Cc1cc(Nc2cc(N)ncn2)c(=O)n2c1C(=O)NC21CCCCC1: class 1
- CC(C)NCCCn1c(Sc2cc(Cl)cc(Cl)c2)nc2c(N)ncnc21: class 1
- CN1CCN(c2ccc3nc(-c4cc(C(C)(C)C)c(OCCCC(=O)NCCCN=[N+]=[N-])c(C(C)(C)C)c4)[nH]c3c2)CC1: class 1
- CC(=O)N1c2ccc(-c3ccc(C(=O)O)cc3)cc2[C@H](Nc2ccc(Cl)cc2)C[C@@H]1C: class 1
- CN(C)CC[C@H](CSc1ccccc1)Nc1ccc(S(=O)(=O)NC(=O)c2ccc(N3CCN(Cc4ccccc4-c4ccc(Cl)cc4)CC3)cc2)cc1[N+](=O)[O-]: class 1
- N#Cc1cccnc1N1CCN(C(=O)c2cccc(Cc3n[nH]c(=O)c4ccccc34)c2)CC1: class 1
- CC[C@]12C=CCN3CC[C@@]4(c5cc([C@@]6(C(=O)OC)CC7C[C@@H](C(C)(F)F)CN(Cc8c6[nH]c6ccccc86)C7)c(OC)cc5N(C)[C@H]4[C@@](O)(C(=O)OC)[C@@H]1OC(C)=O)[C@@H]32 (some centres not stated): class 1
- N#C/C(=C\c1ccc(O)c(O)c1)C(=O)NCc1ccccc1: class 1
- C=C1/C(=C/C=C2\CCCC3(C)[C@@H]([C@H](C)/C=C/C=C/C(O)(CC)CC)CC[C@@H]23)C[C@@H](O)C[C@@H]1O (some centres not stated): class 1
- O=C(O)/C=C/c1ccc(Cn2ccnc2)cc1: class 0
- O=C(CCCCCCC(=O)N/N=C/c1ccc(N(c2ccccc2)c2ccccc2)cc1)NO: class 1
- CCOC(=O)N[C@@H]1CC[C@@H]2[C@@H](C1)C[C@H]1C(=O)O[C@H](C)[C@H]1[C@H]2/C=C/c1ccc(-c2cccc(F)c2)cn1: class 1
